Each recorded value in this set is attributed to patent US9353090B2.

# target: human soluble guanylate cyclase alpha 1 and beta 1 subunits (sGC) (Homo sapiens (Human), UniProt Q02108+Q02153)
# Sequence (Q02108 whole entry partner): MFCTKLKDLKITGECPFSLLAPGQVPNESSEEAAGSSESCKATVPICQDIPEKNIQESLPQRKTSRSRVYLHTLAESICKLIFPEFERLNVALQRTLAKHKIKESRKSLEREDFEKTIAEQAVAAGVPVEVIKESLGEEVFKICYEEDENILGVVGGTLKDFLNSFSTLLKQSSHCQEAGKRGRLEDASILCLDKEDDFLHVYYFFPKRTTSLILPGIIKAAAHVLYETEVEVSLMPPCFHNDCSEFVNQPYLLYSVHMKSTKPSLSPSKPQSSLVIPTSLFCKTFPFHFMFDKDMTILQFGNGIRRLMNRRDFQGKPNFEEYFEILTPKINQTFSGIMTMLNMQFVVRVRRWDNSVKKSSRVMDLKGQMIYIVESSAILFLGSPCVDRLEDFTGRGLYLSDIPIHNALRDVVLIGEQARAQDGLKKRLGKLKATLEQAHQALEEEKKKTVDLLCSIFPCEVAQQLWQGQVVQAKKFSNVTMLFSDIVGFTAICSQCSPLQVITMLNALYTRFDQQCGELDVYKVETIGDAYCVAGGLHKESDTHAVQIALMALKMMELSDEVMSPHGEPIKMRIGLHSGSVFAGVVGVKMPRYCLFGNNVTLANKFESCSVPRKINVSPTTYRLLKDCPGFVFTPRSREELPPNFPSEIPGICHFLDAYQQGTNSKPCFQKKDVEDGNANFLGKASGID
# Sequence (Q02153 whole entry): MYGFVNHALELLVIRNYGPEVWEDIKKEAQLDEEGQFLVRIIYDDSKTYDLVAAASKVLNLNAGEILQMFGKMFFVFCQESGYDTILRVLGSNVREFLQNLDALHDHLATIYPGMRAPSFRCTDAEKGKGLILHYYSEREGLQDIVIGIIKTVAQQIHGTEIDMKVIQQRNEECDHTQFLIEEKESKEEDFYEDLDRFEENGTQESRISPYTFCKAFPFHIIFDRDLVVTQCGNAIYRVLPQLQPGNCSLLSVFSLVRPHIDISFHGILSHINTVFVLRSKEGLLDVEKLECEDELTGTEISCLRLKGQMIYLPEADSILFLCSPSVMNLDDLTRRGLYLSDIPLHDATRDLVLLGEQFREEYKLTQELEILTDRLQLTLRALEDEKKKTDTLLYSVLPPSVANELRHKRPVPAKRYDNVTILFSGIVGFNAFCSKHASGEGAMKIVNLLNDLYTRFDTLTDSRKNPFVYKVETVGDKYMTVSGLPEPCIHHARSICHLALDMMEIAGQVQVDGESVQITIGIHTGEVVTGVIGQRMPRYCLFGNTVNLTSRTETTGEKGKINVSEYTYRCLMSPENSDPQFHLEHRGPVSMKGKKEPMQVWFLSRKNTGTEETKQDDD
# experiment-summary: sGC cellular activator assay (cGMP, HTRF), in the presence and absence of 50% human serum
# test-context: CHO cells stably expressing human sGC alpha 1/beta 1, preincubated with 40 microM ODQ; cGMP by HTRF; Table 2 does not state whether with or without 50% human serum
Friendly reminder: EC50 below 0.01 µM is Met, at or above is Not met.

Solved entries (count: 3):
compound	classification
Cc1cccc(-c2csc(N3CC[C@@]4(C(=O)O)C[C@H]4C3)n2)c1OCc1ccc2c(c1C)CCN(C1CCCOC1)C2 (stereo partly shown)	Met
COC[C@H]1N(c2cccc(-c3cccc(C)c3OCc3ccc4c(c3C)CCN(C3CCOCC3)C4)n2)C[C@@H]2C[C@@]21C(=O)O	Not met
Cc1cccc(-c2csc(N3C[C@@H]4C[C@]4(C(=O)O)C3)n2)c1OCc1ccc2c(c1C)CCN(C1CCOCC1)C2	Not met

Lab note: EC50 threshold 0.01 µM. Does this compound come in strictly under it? CCO[C@@H]1CN(c2cccc(-c3cc(C)ccc3OCc3cc4c(c(OC)c3)CN(C3CCOCC3)CC4)n2)CC[C@@H]1C(=O)O
Not met

Please determine if COC[C@H]1N(c2cccc(-c3cccc(C)c3OCc3cc(C)c4c(c3)CCN(C3COC3)C4)n2)C[C@@H]2C[C@@]21C(=O)O is below 0.01 µM in terms of EC50.
Not met
